# ASSAY_NAME: Spectral properties of rhodamine bis-boronic acids and precursors in DMSO:buffer
# Type: physicochemical
# DETAILS: DMSO:buffer 1:1
# Experimental: Characterization: The spectral properties of compounds 50-53 were determined. Absorption and fluorescence spectra of solutions of the rhodamine bis-boronic acids 51 and 53, and their respective precursors 50 and 52, are shown in FIGS. 27A-C (in DMSO:buffer 1:9) and 27D-F (DMSO:buffer 1:1). […] Excitation and emission spectra were normalized to their absorbance at the excitation wavelength, and are proportional to quantum yield.
ASSAY_READOUT: Ex (nm)
Answer in nm, number only, no unit symbol.

# input Entry `N=c1ccc2c(ccc3c(-c4ccccc4C(=O)O)c4ccc5cc(N)ccc5c4oc32)c1` needs its Ex filled in; supply it.
# output 596

# input Given the compound `O=C(O)c1ccccc1-c1c2ccc(=NCc3ccccc3B(O)O)cc-2oc2c1ccc1cc(NCc3ccccc3B(O)O)ccc12` , write its reported Ex.
# output 580

# input Please indicate Ex recorded for `Cl.N=c1ccc2c(-c3ccccc3C(=O)O)c3ccc(N)cc3oc-2c1`
# output 502

# input Quick one: give measured Ex for `O=C(O)c1ccccc1-c1c2ccc3cc(NCc4ccccc4B(O)O)ccc3c2oc2c1ccc1cc(=NCc3ccccc3B(O)O)ccc12`
# output 624

# input Using known records, supply Ex for `N=c1ccc2c(-c3ccccc3C(=O)O)c3ccc4cc(N)ccc4c3oc-2c1`
# output 542

Cited source for all entries: patent US9958451B2
